molecular target: Cytochrome P450 2C9 (Homo sapiens); experiment: Cytochrome P450 family 2 subfamily C member 9 (CYP2C9) small molecule antagonists: luciferase biochemical (cell-free) qHTS assay (AID 1645842); settings: P450-Glo CYP2C9 enzyme assay, luciferin luminescence; series mostly up to 57.4 µM; further: potency means the concentration at half of the fitted maximal effect; nearly all actives have a fitted effect of over 55% in size
Results filed as inconclusive are left out. Calls of active or inactive are those of the source. The call rests on the fitted dose curve; in most records, active means well fitted inhibition curve with a large enough effect in the repeat runs; inconclusive means weak or mixed curves; inactive means no such curve, though single readings can be large or run the other way.
attributeMeasured: Potency

Record lookup: for Cytochrome P450 2C9 (Homo sapiens), what Potency belongs to "NC(=O)c1c(OCc2c(F)cc(Br)cc2F)nsc1NC(=O)NCCCCN1CCCC1" ?
16.9 µM (active)

Hello, I am looking for reported Potency with Cytochrome P450 2C9 (Homo sapiens) for "CC(C)c1cnn2c(NCc3ccccc3)cc(N[C@@H](CO)[C@H](O)CO)nc12" . Could you help?
3.79 µM (active)

Request - read-out Potency | tested on Cytochrome P450 2C9 (Homo sapiens) | molecule "Cc1cc(Nc2nc(N[C@@H](C)c3ccc(F)cc3)c(C#N)cc2F)n[nH]1"
1.9 µM (active)

Write down the reported Potency of "Cc1cc(Nc2ncnc3ccc(-c4ccc(CNCCS(C)(=O)=O)o4)cc23)ccc1Oc1ccn2ncnc2c1" , test system: Cytochrome P450 2C9 (Homo sapiens).
12 µM (active)

Report Potency for "c1ccc2c(CCNc3ccc(Nc4ccncc4)cc3)c[nH]c2c1" tested on Cytochrome P450 2C9 (Homo sapiens).
2.68 µM (active)

====

assay: qHTS of pediatric cancer cell lines to identify multiple opportunities for drug repurposing: Primary screen for Saos-2 cells (AID 1347097); details: Saos-2 viability, CellTiter-Glo ATP luminescence, 48 h; series mostly up to 46 µM; further: potency means the concentration at half of the fitted maximal effect; nearly all actives have a fitted effect of over 40% in size
Inconclusive results are not listed. Activity calls are given as the source filed them. Calls come from the whole dose curve; as a rule, active = well fitted cell-killing curve with a large enough effect; inconclusive = small, poorly fitted or top-dose-only effect; inactive = no such curve, though single readings can be large or run the other way.
What Potency was measured for each of the following?

Which Potency value is on record for "CC1(C)CCC(c2ccc(Cl)cc2)=C(CN2CCN(c3ccc(C(=O)NS(=O)(=O)c4ccc(N[C@H](CCN5CCOCC5)CSc5ccccc5)c(S(=O)(=O)C(F)(F)F)c4)cc3)CC2)C1" ?
4.18 µM (active)

Which Potency value belongs to "CCC[C@H](NC(=O)C(C#N)=Cc1cccc(Br)n1)c1ccccc1" ?
33.2 µM (active)

I have this molecule here, "C[C@@]12O[C@@H](C[C@]1(O)CO)n1c3ccccc3c3c4c(c5c6ccccc6n2c5c31)CNC4=O" , and I need its recorded Potency.
3.32 µM (active)

I am curious: what Potency value has been reported for "CCN1CCN(Cc2ccc(-c3cc4c(N[C@H](C)c5ccccc5)ncnc4[nH]3)cc2)CC1" ?
0.209 µM (active)

====

system: MKL-1; experiment: qHTS assay to identify novel small-molecules to repurpose for Merkel cell carcinoma treatment (AID 1296009); settings: MCC and control cell lines, CellTiter-Glo viability, 72 h; series mostly up to 46 µM; further: nearly all actives have a fitted effect of over 60% in size
Inconclusive results are not listed. Activity calls are given as the source filed them. The call rests on the fitted dose curve; in most records, active means well fitted inhibition curve with a large enough effect; inconclusive means small, poorly fitted or top-dose-only effect; inactive means flat fitted curve, though single readings scatter.
API: response.call in True for active, False for inactive

Call for entry "C[C@@H](Oc1cc(-c2cnn(C3CCNCC3)c2)cnc1N)c1c(Cl)ccc(F)c1Cl" :
True

Which outcome was assigned to "O=C(O)[C@H](Cc1c[nH]c2ccccc12)N1C(=O)c2ccccc2C1=O" in this test?
False

Any idea what this test logged for "O=c1c2ccccc2nc2n1CCc1c-2[nH]c2ccccc12" ?
False

Could you check what this test reported for "CN(C)c1nc(Cc2ccc(NC(=O)c3ccc4ccccc4c3)cc2)nc(Cl)c1CC(=O)O" ?
False

# lookup: test call for "CN1CCN(c2ccc3nc(-c4c(N)c5c(F)cccc5[nH]c4=O)[nH]c3c2)CC1"
True

Record request — test call for "CN(C)CC(C)(C)CNc1nn2c(-c3ccccc3)nnc2cc1C1CCC1"
True

Name the outcome recorded for "CCN(CC)CCNC(=O)c1ccc2nc(-c3ccccc3)c(-c3ccc(CN4CCC(n5c(=O)[nH]c6ccccc65)CC4)cc3)nc2c1" in the assay.
True

Please indicate how the test categorized "COc1cc2c(Oc3ccc(NC(=O)C4(C(=O)Nc5ccc(F)cc5)CC4)cc3F)ccnc2cc1OCCCN1CCOCC1" .
True

Can you look up the reported call for "CCCn1c(=O)c2[nH]c(-c3cnn(Cc4cccc(C(F)(F)F)c4)c3)nc2n(CC)c1=O" for me?
False

I'd appreciate the recorded outcome for "CCN(CC)CCCCNc1ncc2cc(-c3cc(OC)cc(OC)c3)c(NC(=O)NC(C)(C)C)nc2n1" from this test.
False

Record request — test call for "C[C@@]12O[C@@H](C[C@]1(O)CO)n1c3ccccc3c3c4c(c5c6ccccc6n2c5c31)CNC4=O"
True

// outcome(item) with item = CN(C1CCc2c(c3ccccc3n2CC(=O)O)C1)S(=O)(=O)c1ccc(F)cc1 (stereo not drawn)
False

What did this assay record as the result for "Cc1[nH]nc2ccc(-c3cncc(OC[C@@H](N)Cc4ccccc4)c3)cc12" ?
True

I would be grateful if you could indicate the recorded call for "CC(C)(C)c1cc(NC(=O)Nc2ccc(-c3cn4c(n3)sc3cc(OCCN5CCOCC5)ccc34)cc2)no1" .
False

Fill in: this test's call for "CC(C)c1ccccc1Cc1cc(C(=O)Nc2ccc(S(=O)(=O)c3ccccc3C(C)(C)C)cc2)c(O)c(O)c1O" is ___
True

Could you check what this test reported for "O=C(c1cncc(Br)c1)N1CCC(N2CCCC2)CC1" ?
False

What classification did CC(O)C1C(=O)N2C(C(=O)O)=C(SC3CNC(C(=O)N(C)C)C3)C(C)C12 (stereo not drawn) end up with in this test?
False

Given "C#Cc1cccc(Nc2ncnc3cc(OC)c(OCCCCCCC(=O)NO)cc23)c1" , state the outcome it received in this test.
True

What is the recorded call for this compound in the test? "Clc1cccc(-n2nnnc2NCc2ccccc2Oc2ccccn2)c1Cl"
False

Answer briefly: the call reported for "Nc1ccccc1NC(=O)c1ccc(CNC(=O)OCc2cccnc2)cc1" in this assay.
True

Hello, I am checking results. What call was entered for "CCc1cc2c(cc1N1CCC(N3CCOCC3)CC1)C(C)(C)c1[nH]c3cc(C#N)ccc3c1C2=O" ?
False

Which outcome was assigned to "CN(c1ncccc1CNc1nc(Nc2ccc3c(c2)CC(=O)N3)ncc1C(F)(F)F)S(C)(=O)=O" in this test?
True

Called result for "CCn1cc(-c2ccnc3[nH]c(-c4cccc(CN(C)C)c4)cc23)c(-c2ccc(NC(=O)N(C)C)cc2)n1"
True

Answer briefly: the call reported for "Cc1cc(CN2CCN(c3c(Br)cnc4nc(-c5ccc(N6CCN(C)CC6)cc5)[nH]c34)CC2)no1" in this assay.
True

So what was the verdict on "CC(C)c1nn(-c2c(Cl)cccc2Cl)c2nc(Cc3ccc(OCCO)cc3)[nH]c(=O)c12" in this test?
True

Any idea what this test logged for "Nc1cc(C(F)(F)F)c(-c2cc(N3CCOCC3)nc(N3CCOCC3)n2)cn1" ?
True

// return assay outcome for "COc1cccc(Nc2c(C(N)=O)cnc3c(C)cc(S(=O)(=O)c4cccc(C(=O)N(C)C)c4)cc23)c1"
False

Recorded test outcome, item "Cc1nc(Nc2n[nH]c3c2CN(C(=O)N[C@H](CN(C)C)c2ccccc2)C3(C)C)c2sccc2n1"
True

Which outcome did this test record for the compound "CC(C)Nc1cc(C(F)(F)F)cc2nc(NC(=O)c3cccnc3)nn12" ?
False

GET /call?item= "CC(C)(O)CCc1ccc(OCc2cc(-c3cccc(OC(F)F)c3)c3ncccc3c2)cc1" returns the recorded outcome of this test.
False

// return assay outcome for "CN(C)CC=CC(=O)Nc1cc2c(Nc3ccc(F)c(Cl)c3)ncnc2cc1O[C@H]1CCOC1"
True

Name the outcome recorded for "Nc1ccc(S(=O)(=O)Nc2ncccn2)cc1" in the assay.
False

State the result this test recorded for "Cc1ccc(CN2CCNCC2)cc1NC(=O)CNc1ccc(F)c(F)c1" .
False

Each compound tested received a call. Report the one for "CC[C@H](CO)Nc1nc(NCc2ccccc2)c2ncn(C(C)C)c2n1" .
False

What classification did CC(NCc1ccc2c(c1)nc(NC(=O)c1ccc(-c3cn[nH]c3)s1)n2CC(C)(C)O)C(C)(C)C (stereo not drawn) end up with in this test?
True

Query: recorded result category for "O=c1[nH]nc(Sc2ncc([N+](=O)[O-])s2)n1-c1ccc2c(c1)OCCO2" in this test
True

Assay outcome for "CC(C)C[C@H](NC(=O)CNC(=O)c1cc(Cl)ccc1Cl)B(O)O" : what was it?
True

What was the test verdict on "COc1cc2c(cc1-c1c(C)noc1C)ncc1[nH]c(=O)n([C@H](C)c3ccccn3)c12" ?
True
